tested on: Mythimna separata; experiment: Insecticidal activity against fourth-instar larval stage of Mythimna separata (Oriental armyworm) in compound-pretreated corn leaves assessed as mortality at 0.25 mg/l at 25 +/-1degC after 4 days; type: functional
QUANTITY_MEASURED: mortality at 0.25 µg/mL (%)

1) O=C(NC(=O)N(SSN(C(=O)NC(=O)c1ccccc1Cl)c1ccc(OC(F)(F)F)cc1)c1ccc(OC(F)(F)F)cc1)c1ccccc1Cl; 10
2) O=C(NC(=O)N(SN(C(=O)NC(=O)c1c(F)cccc1F)c1ccc(Cl)cc1)c1ccc(Cl)cc1)c1c(F)cccc1F; 25
3) O=C(NC(=O)N(SNc1ccc(OC(F)(F)F)cc1)c1ccc(OC(F)(F)F)cc1)c1c(F)cccc1F; 40
4) CCOC(=O)CCN(Cc1ccccc1)SN(C(=O)NC(=O)c1c(F)cccc1F)c1ccc(Cl)cc1; 30

###

# mortality at 0.0025 µg/mL annotations
test system: Culex pipiens pallens; test: Insecticidal activity against fourth-instar larval stage of Culex pipiens pallens (mosquito) assessed as mortality at 0.0025 mg/l at 25 +/-1degC after 8 days; assay type: functional; settings: 192 h
QUANTITY_MEASURED: mortality at 0.0025 µg/mL (%)

1) O=C(NC(=O)N(SN1CCCCC1)c1ccc(OC(F)(F)F)cc1)c1c(F)cccc1F; 75
2) CCN(CC)SN(C(=O)NC(=O)c1c(F)cccc1F)c1ccc(Cl)cc1; 10
3) O=C(NC(=O)c1c(F)cccc1F)Nc1ccc(Cl)cc1 [DIFLUBENZURON]; 10
4) O=C(NC(=O)N(SN1CCCCC1)c1ccc(Cl)cc1)c1c(F)cccc1F; 0
5) O=C(NC(=O)N(SN1CCOCC1)c1ccc(Cl)cc1)c1c(F)cccc1F; 0
6) CCN(CC)SN(C(=O)NC(=O)c1c(F)cccc1F)c1ccc(OC(F)(F)F)cc1; 40
7) O=C(NC(=O)N(SN1CCOCC1)c1ccc(OC(F)(F)F)cc1)c1c(F)cccc1F; 20

###

# mortality at 0.25 µg/mL annotations
system: Mythimna separata; experiment: Insecticidal activity against fourth-instar larval stage of Mythimna separata (Oriental armyworm) in compound-pretreated corn leaves assessed as mortality at 0.25 mg/l at 25 +/-1degC after 4 days; type: functional
QUANTITY_MEASURED: mortality at 0.25 µg/mL

1) O=C(NC(=O)N(SN(C(=O)NC(=O)c1c(F)cccc1F)c1ccc(OC(F)(F)F)cc1)c1ccc(OC(F)(F)F)cc1)c1ccccc1Cl; 50%
2) O=C(NC(=O)N(SSNc1ccc(OC(F)(F)F)cc1)c1ccc(OC(F)(F)F)cc1)c1c(F)cccc1F; 30%
3) O=C(NC(=O)N(SSNc1ccc(C(F)(F)F)cc1)c1ccc(C(F)(F)F)cc1)c1c(F)cccc1F; 10%
4) O=C(NC(=O)N(SN1CCCCC1)c1ccc(OC(F)(F)F)cc1)c1c(F)cccc1F; 50%
5) CCN(CC)SN(C(=O)NC(=O)c1c(F)cccc1F)c1ccc(OC(F)(F)F)cc1; 60%

###

# mortality at 0.25 µg/mL annotations
system: Mythimna separata; test: Insecticidal activity against fourth-instar larval stage of Mythimna separata (Oriental armyworm) in compound-pretreated corn leaves assessed as mortality at 0.25 mg/l at 25 +/-1degC after 4 days; type: functional
QUANTITY_MEASURED: mortality at 0.25 µg/mL (%)

1) O=C(NC(=O)N(SN1CCOCC1)c1ccc(Cl)cc1)c1c(F)cccc1F; 80
2) O=C(NC(=O)N(SSN(C(=O)NC(=O)c1c(F)cccc1F)c1ccc(OC(F)(F)F)cc1)c1ccc(OC(F)(F)F)cc1)c1ccccc1Cl; 0
3) O=C(NC(=O)N(SNc1ccc(C(F)(F)F)cc1)c1ccc(C(F)(F)F)cc1)c1c(F)cccc1F; 45
4) O=C(NC(=O)N(SSNc1ccc(C(F)(F)F)cc1)c1ccc(C(F)(F)F)cc1)c1ccccc1Cl; 0
5) O=C(NC(=O)N(SSNc1ccc(OC(F)(F)F)cc1)c1ccc(OC(F)(F)F)cc1)c1ccccc1Cl; 30
6) CCN(CC)SN(C(=O)NC(=O)c1c(F)cccc1F)c1ccc(Cl)cc1; 20
7) O=C(NC(=O)c1c(F)cccc1F)Nc1ccc(Cl)cc1; 45
8) O=C(NC(=O)N(SN1CCOCC1)c1ccc(OC(F)(F)F)cc1)c1c(F)cccc1F; 80
9) O=C(NC(=O)N(SSN(C(=O)NC(=O)c1c(F)cccc1F)c1ccc(OC(F)(F)F)cc1)c1ccc(OC(F)(F)F)cc1)c1c(F)cccc1F; 20
10) O=C(NC(=O)N(SN(C(=O)NC(=O)c1c(F)cccc1F)c1ccc(OC(F)(F)F)cc1)c1ccc(OC(F)(F)F)cc1)c1c(F)cccc1F; 20
11) O=C(NC(=O)N(SN1CCCCC1)c1ccc(Cl)cc1)c1c(F)cccc1F; 20
12) O=C(NC(=O)c1ccccc1Cl)Nc1ccc(OC(F)(F)F)cc1; 20
13) O=C(NC(=O)N(SNc1ccc(Cl)cc1)c1ccc(Cl)cc1)c1c(F)cccc1F; 0
